- Assay Remarks: Pharmacokinetic measurements of H3B-6527 capsules in patients (trial NCT02834780), plasma LC-MS/MS
- Format: in vivo, human
- Conditions: 300 mg QD, fasted, Day 8; Table 5, nominal times
Result Type: AUC, geometric mean (CV%)

Reported AUC, geometric mean (CV%) for `C=CC(=O)Nc1cc(N2CCN(CC)CC2)ccc1Nc1cc(N(C)C(=O)Nc2c(Cl)c(OC)cc(OC)c2Cl)ncn1` : what is it?
53 ng·h/mL

----------
- Assay Remarks: Pharmacokinetic measurements of H3B-6527 capsules in patients (trial NCT02834780), plasma LC-MS/MS
- Type: in vivo, human
- Conditions: human, plasma, oral, 1000 mg, 1000 mg QD, fasted, Day 8; Table 6, actual times after QC; read-out: Tmax, median (min-max)
Result Type: Tmax (h)
Express it in h; write the number only.

Reported Tmax for `C=CC(=O)Nc1cc(N2CCN(CC)CC2)ccc1Nc1cc(N(C)C(=O)Nc2c(Cl)c(OC)cc(OC)c2Cl)ncn1` : what is it?
2
